melting point values, listed per item

- querySmiles: "Cc1nccn1Cc1cn(-c2ccc(Cl)cc2F)cn1.Cl.Cl"
  melting point: "235 to 236 °C"
- querySmiles: "CCc1nccn1Cc1cn(-c2ccc(-c3ccccc3)cc2)cn1.Cl.Cl"
  melting point: "248 to 253 °C"
- querySmiles: "CCc1nccn1Cc1cn(-c2cc(F)cc(C(F)(F)F)c2)cn1.Cl.Cl"
  melting point: "243 to 244 °C"
- querySmiles: "COc1cc(-n2cnc(Cn3ccnc3)c2)ccc1Cl.Cl.Cl"
  melting point: "221 to 222 °C"
- querySmiles: "CCc1nccn1Cc1cn(-c2ccc(F)c(Br)c2)cn1.Cl.Cl"
  melting point: "238 to 239 °C"
- querySmiles: "CSc1ccc(-n2cnc(Cn3ccnc3)c2)cc1.Cl.Cl"
  melting point: "233 to 234 °C"
- querySmiles: "CCc1nccn1Cc1cn(-c2ccc(F)c(C(F)(F)F)c2)cn1.Cl.Cl"
  melting point: "> 238 °C (dec.)"
- querySmiles: "CNc1nccn1Cc1cn(-c2ccc(Cl)c(Cl)c2)cn1.Cl"
  melting point: "> 250 °C"
- querySmiles: "Brc1ccc(-n2cnc(Cn3ccnc3)c2)cc1.Cl.Cl"
  melting point: "237 to 239 °C"
- querySmiles: "C=Cc1cccc(-n2cnc(Cn3ccnc3C)c2)c1.Cl.Cl"
  melting point: "207 to 208 °C"
- querySmiles: "Cl.Cl.FC(F)c1cccc(-n2cnc(Cn3ccnc3)c2)c1"
  melting point: "216 to 217 °C"

====

Counter-ions that a name gives are not always drawn.
propertyLabel: melting point

- compound: "Cc1nccn1Cc1cn(-c2ccc(C(F)(F)F)cc2)cn1.Cl.Cl"
  propertyLabel: "melting point"
  reportedValue: "246 to 248 °C"
- compound: "CCc1nccn1Cc1cn(-c2ccc(Cl)cc2)cn1.Cl.Cl"
  propertyLabel: "melting point"
  reportedValue: "200 to 201 °C"
- compound: "Cc1ccc(-n2cnc(Cn3ccnc3)c2)cc1.Cl.Cl"
  propertyLabel: "melting point"
  reportedValue: "228 to 229 °C"
- compound: "Cc1nccn1Cc1cn(-c2cnc3ccccc3c2)cn1 (as salt: sodium)"
  propertyLabel: "melting point"
  reportedValue: "168 to 172 °C"
- compound: "CCc1nccn1Cc1cn(-c2ccc(SC)cc2)cn1.Cl.Cl"
  propertyLabel: "melting point"
  reportedValue: "161 to 162 °C"
- compound: "COc1cc(-n2cnc(Cn3ccnc3C)c2)ccc1Cl.Cl.Cl"
  propertyLabel: "melting point"
  reportedValue: "> 250 °C"
- compound: "CCc1cccc(-n2cnc(Cn3ccnc3C)c2)c1.Cl.Cl"
  propertyLabel: "melting point"
  reportedValue: "> 200 °C (dec.)"
- compound: "Cc1nccn1Cc1cn(-c2ccc(Cl)c(Cl)c2)cn1.Cl.Cl"
  propertyLabel: "melting point"
  reportedValue: "> 250 °C"
- compound: "Cc1nccn1Cc1cn(-c2ccc(F)c(Br)c2)cn1.Cl.Cl"
  propertyLabel: "melting point"
  reportedValue: "232 to 233 °C"
- compound: "Cl.Cl.FC(F)(F)c1cc(-n2cnc(Cn3ccnc3)c2)ccc1Cl"
  propertyLabel: "melting point"
  reportedValue: "> 250 °C"

====

Structures can show the parent of a compound that is named as a salt.
melting point values, listed per item

- compound: "Cc1nccn1Cc1cn(-c2ccc([N+](=O)[O-])cc2)cn1.Cl.Cl"
  melting point: "> 250 °C"
- compound: "CCc1nccn1Cc1cn(-c2cnc3ccccc3c2)cn1 (as salt: sodium) [Example 210]"
  melting point: "132 to 136 °C"
- compound: "Cl.Cl.Fc1ccc(-n2cnc(Cn3ccnc3)c2)cc1Br [Example 158]"
  melting point: "229 to 230 °C"
- compound: "CCc1nccn1Cc1cn(-c2cccc(C(F)(F)F)c2)cn1.Cl.Cl"
  melting point: "216 to 218 °C"
- compound: "Cl.Cl.FC(F)(F)Oc1cccc(-n2cnc(Cn3ccnc3)c2)c1"
  melting point: "233 to 234 °C"
- compound: "Cl.Cl.Fc1cc(Cl)ccc1-n1cnc(Cn2ccnc2)c1"
  melting point: "> 212 °C (dec.)"
- compound: "CCc1nccn1Cc1cn(-c2ccc3ncccc3c2)cn1 (as salt: sodium) [Example 221]"
  melting point: "> 79 °C (dec.)"
- compound: "CCc1nccn1Cc1cn(-c2cccc(OC(F)(F)F)c2)cn1.Cl.Cl"
  melting point: "237 to 239 °C"
- compound: "Cc1nccn1Cc1cn(-c2ccc(Cl)cc2)cn1.Cl.Cl [Example 48]"
  melting point: "243 to 244 °C"
- compound: "Cc1cc(-n2cnc(Cn3ccnc3C)c2)ccc1F.Cl.Cl [Example 24]"
  melting point: "210 to 212 °C"
- compound: "CC(=O)Nc1nccn1Cc1cn(-c2ccc(Cl)c(Cl)c2)cn1 [Example 110]"
  melting point: "> 236 °C (dec.)"
- compound: "Cl.Cl.Fc1ccc(-n2cnc(Cn3ccnc3)c2)cc1C(F)F [Example 165]"
  melting point: "239 to 241 °C"
- compound: "Cc1nccn1Cc1cnn(-c2ccc(Cl)c(Cl)c2)c1 [Example 114]"
  melting point: "176 to 177 °C"
- compound: "CCc1nccn1Cc1cn(-c2ccc(SC(F)(F)F)c(Cl)c2)cn1.Cl.Cl"
  melting point: "214 to 215 °C"
- compound: "CCc1nccn1Cc1cn(-c2ccc(F)c(C(C)(F)F)c2)cn1 (as salt: hydrochloride) [Example 151]"
  melting point: "> 200 °C (dec.)"
- compound: "Cc1nccn1Cc1cn(-c2cccc(OC(F)F)c2)cn1.Cl.Cl"
  melting point: "220 to 222 °C"
- compound: "Cl.Cl.Clc1ccc(-n2cnc(Cn3ccnc3-c3ccccc3)c2)cc1Cl"
  melting point: "197 to 198 °C"
- compound: "Cc1cc(-n2cnc(Cn3ccnc3)c2)ccc1Cl.Cl.Cl [Example 12]"
  melting point: "206 to 207 °C"
- compound: "CC(F)(F)c1cc(-n2cnc(Cn3ccnc3)c2)ccc1F.Cl.Cl [Example 150]"
  melting point: "> 200 °C (dec.)"
- compound: "Cc1nccn1Cc1cn(-c2cccc(C3CC3)c2)cn1.Cl.Cl [Example 162]"
  melting point: "174 to 175 °C"
- compound: "CCc1nccn1Cc1cn(-c2cccc(C(F)F)c2)cn1.Cl.Cl"
  melting point: "219 to 220 °C"
- compound: "CC(C)c1nccn1Cc1cn(-c2ccc(Cl)c(Cl)c2)cn1.Cl.Cl [Example 4]"
  melting point: "236 to 238 °C (dec.)"
- compound: "CCc1cccc(-n2cnc(Cn3ccnc3)c2)c1.Cl.Cl [Example 161]"
  melting point: "> 190 °C (dec.)"
- compound: "Cc1nccn1Cc1cn(-c2ccc3c(c2)COC3)cn1.Cl.Cl"
  melting point: "> 250 °C"
- compound: "Cc1nccn1Cc1ncn(-c2ccc(Cl)c(Cl)c2)c1C.Cl.Cl [Example 103]"
  melting point: "> 240 °C (dec.)"
- compound: "CCc1nccn1Cc1cn(-c2cc(OC)cc(C(F)(F)F)c2)cn1 (as salt: hydrochloride) [Example 181]"
  melting point: "245 to 246 °C"
- compound: "Cc1nccn1Cc1cn(-c2ccc(SC(F)(F)F)cc2)cn1.Cl.Cl"
  melting point: "249 to 250 °C"
- compound: "Cl.Cl.O=[N+]([O-])c1ccc(-n2cnc(Cn3ccnc3)c2)cc1"
  melting point: "245 to 246 °C"
- compound: "Cl.Cl.c1cn(Cc2cn(-c3ccc4c(c3)OCO4)cn2)cn1"
  melting point: "197 to 198 °C"
- compound: "Cc1nccn1Cc1cn(-c2cccc(C(F)F)c2)cn1.Cl.Cl [Example 194]"
  melting point: "195 to 196 °C"
- compound: "Cc1nccn1Cc1cn(-c2cc3ccccc3cn2)cn1.Cl.Cl"
  melting point: "> 250 °C"
- compound: "Cc1nccn1Cc1cn(-c2cccc(Br)c2)cn1.Cl.Cl [Example 192]"
  melting point: "205 to 207 °C"
- compound: "CCc1nccn1Cc1cn(-c2cccc3cccnc23)cn1 (as salt: sodium) [Example 223]"
  melting point: "78 to 81 °C"
- compound: "Cc1ccc(-n2cnc(Cn3ccnc3C)c2)cc1Cl.Cl.Cl [Example 87]"
  melting point: "242 to 243 °C"
- compound: "CCc1nccn1Cc1cn(-c2ccc(Br)cc2)cn1.Cl.Cl"
  melting point: "> 250 °C"
- compound: "Cl.Cl.Fc1cc(-n2cnc(Cn3ccnc3)c2)cc(C(F)(F)F)c1"
  melting point: "233 to 234 °C"
- compound: "Cc1nccn1Cc1cn(-c2cccc(I)c2)cn1.Cl.Cl [Example 176]"
  melting point: "> 222 °C (dec.)"
- compound: "CCc1cccc(-n2cnc(Cn3ccnc3CC)c2)c1.Cl.Cl [Example 160]"
  melting point: "> 200 °C (dec.)"
- compound: "CSc1nccn1Cc1cn(-c2ccc(Cl)c(C)c2)cn1.Cl.Cl"
  melting point: "202 to 204 °C (dec.)"
- compound: "Cl.Cl.Fc1ccc(-n2cnc(Cn3ccnc3)c2)cc1Cl"
  melting point: "210 to 212 °C"

// provenance: patent US6667335B2
